- PROTOCOL_NOTES: probe aInhba binding on compound microarray – biochemical, small-molecule microarray, 635/667 nm fluorescence, primary screen (AID 1148);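 further: score merges 667nm spot fluorescence with signal-to-noise for antibody binding to printed compounds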
- PARTICULARS: higher = more signal
PARAMETER_MEASURED: composite z-score

[[record]]
molecule = "O=C1CS(=O)(=O)C(c2cccc([N+](=O)[O-])c2)N1c1ccccc1 (stereo unspecified)"
parameter_measured = "composite z-score"
observed_result = 1.03

[[record]]
molecule = "C=CCNC(=O)[C@@H]1[C@H]2C(=O)O[C@H](c3ccccc3)[C@H](c3ccccc3)N2[C@H](c2ccc(O)cc2)[C@@]12C(=O)N(C(=O)OCCOC)c1ccc(C#CC3=CCCCC3)cc12"
parameter_measured = "composite z-score"
observed_result = 0.0705

[[record]]
molecule = "CC(C)c1ccc(NN2C(C(O)c3ccc(F)cc3)C=CC3C(=O)N(c4ccccc4)C(=O)C32)cc1 (stereo unspecified)"
parameter_measured = "composite z-score"
observed_result = 0.324

[[record]]
molecule = "O=C(c1ccccc1)N1C(=O)[C@]2(Cc3ccccc31)N=C(c1ccc(OCCCO)cc1)O[C@@H]2c1ccccc1"
parameter_measured = "composite z-score"
observed_result = -0.0361

[[record]]
molecule = "COC(=O)[C@@]1(Cc2ccccc2)[C@H]2c3cc(C(=O)N4CCCC4)n(CCc4ccccn4)c3C[C@H]2CN1C(=O)c1ccccc1"
parameter_measured = "composite z-score"
observed_result = 0.605

[[record]]
molecule = "C=C[C@H](C)[C@H](OC(=O)Nc1ccc(SC)cc1)c1ccc(OCCO)cc1"
parameter_measured = "composite z-score"
observed_result = -0.0221

[[record]]
molecule = "C[N+](C)(C)CCCCCCNC(=O)[C@@H]1C[C@@H]2C(=O)N3CCC[C@H]3C(=O)N2[C@@H]1c1ccc(O)cc1"
parameter_measured = "composite z-score"
observed_result = -0.0762

[[record]]
molecule = "C=CC[C@H](OC(=O)Nc1ccc(SC)cc1)c1ccc(O)c2ccccc12"
parameter_measured = "composite z-score"
observed_result = -0.101

[[record]]
molecule = "CCCCC(=C=CC[C@H](O)c1ccc(OCCO)cc1)CCO"
parameter_measured = "composite z-score"
observed_result = -0.0451

[[record]]
molecule = "COCCCNC(=O)[C@@]1(Sc2ccc(C)cc2)CC(=O)N(C2Cc3ccccc3C2)[C@@H]1c1ccc(CO)cc1"
parameter_measured = "composite z-score"
observed_result = -0.327

[[record]]
molecule = "O=C1OCCC=C[C@H]2OC34C=CCN(c5ccc6ccccc6c5)C(=O)[C@H]3N(CCCO)C(=O)[C@@H]4C12 (stereo partly specified)"
parameter_measured = "composite z-score"
observed_result = -0.239

[[record]]
molecule = "[N-]=[N+]=Nc1ccccc1C[C@]1(C(=O)NCC(O)CO)COC(c2ccc(OCCCO)cc2)=N1 (stereo partly specified)"
parameter_measured = "composite z-score"
observed_result = -0.0131

[[record]]
molecule = "COC(=O)c1c(CC[C@@H](CO)NC(=O)N[C@@H](C)Cn2cc(-c3ccccn3)nn2)oc(C(C)=O)c1C(=O)OC"
parameter_measured = "composite z-score"
observed_result = 0.154

[[record]]
molecule = "CC(C)C(O)C1C=CC2C(=O)N(c3ccccc3)C(=O)C2N1Nc1ccccc1 (stereo unspecified)"
parameter_measured = "composite z-score"
observed_result = 0.0756

[[record]]
molecule = "[N-]=[N+]=NCc1ccccc1[C@H]1OC(c2ccc(OCCCO)cc2)=N[C@@]1(Cc1ccccc1N=[N+]=[N-])C(=O)NCC(O)CO (stereo partly specified)"
parameter_measured = "composite z-score"
observed_result = 0.346

[[record]]
molecule = "[N-]=[N+]=Nc1ccccc1C[C@@]1(C(=O)N2CCOCC2)N=C(c2ccc(OCCCO)cc2)O[C@@H]1c1ccccc1"
parameter_measured = "composite z-score"
observed_result = -0.135

